test system: SR leukemia; test: NCI tumour cell line growth inhibition, 48 h
Reported TGI values follow for various compounds
readout.kind: TGI

compound: CC(=O)Oc1ccc2c(c1)[C@@]1(C)CCCC(C)(C)[C@@H]1CC2
readout.kind: TGI
recorded.value: > 100 µM
--
compound: CNC(=O)c1cc(Oc2cccc3nc(NC(=O)Nc4cc(C(F)(F)F)cc(C(F)(F)F)c4)ccc23)ccn1
readout.kind: TGI
recorded.value: > 100 µM
--
compound: O=C(/C=C/c1ccc(OCc2ccccc2)cc1)NCc1ccc(C(=O)NCCc2c[nH]c3ccccc23)cc1
readout.kind: TGI
recorded.value: > 55.3 µM
--
compound: c1ccc(CN2CCc3[nH]c4ccccc4c3C2)cc1
readout.kind: TGI
recorded.value: > 76.6 µM
--
compound: N#Cc1cnc2cc(OC[C@@H](O)CO)c(NC(=O)C3CCCC3)cc2c1Nc1ccc(OCc2cccc(F)c2)c(Cl)c1
readout.kind: TGI
recorded.value: > 50 µM
--
compound: CC(=O)c1c(SCCN2CCOCC2)n(-c2ccccc2)c(=S)n(-c2ccccc2)c1=O
readout.kind: TGI
recorded.value: > 100 µM
--
compound: CC(C)(C)C1CCC2c3c([nH]c4ncccc34)C3C(=O)N(c4ccccc4)C(=O)C3C2C1 (configuration not stated)
readout.kind: TGI
recorded.value: > 100 µM
--
compound: CC1=C(C(=O)NCc2ccccc2)C(c2ccc(Cl)c(Cl)c2)C(C(=O)NCc2ccccc2)=C(C)N1
readout.kind: TGI
recorded.value: > 100 µM
--
compound: N#Cc1c(C#N)c(-c2ccccc2)n(Cc2ccccc2)c1N
readout.kind: TGI
recorded.value: > 100 µM
--
compound: c1ccc2c(c1)nc1n2CSCC1
readout.kind: TGI
recorded.value: > 100 µM
--
compound: CCOc1ccccc1NC(=O)C(=O)C(/C(=N/N)C(=O)OC)c1nc2ccc([N+](=O)[O-])cc2[nH]c1=O (configuration not stated)
readout.kind: TGI
recorded.value: > 100 µM
--
compound: O=C1C[C@H](COCc2ccccc2)NC(=O)C[C@H](COCc2ccccc2)NC(=O)C[C@H](COCc2ccccc2)N1
readout.kind: TGI
recorded.value: > 100 µM
